src = patent US12565504B2

Protocol summary: Rat Liver Microsome Stability Assay
Details: rat liver microsomes 0.5 mg/mL, compound 1 μM; Qh 55 mL/minute/kg
Recorded measurements of RLM % Qh (%), one per entry
State just the number; it will be interpreted in %.

Some solved entries appear below for comparison.
CC(=O)Nc1ncc(CN2CCCC3(C2)OCc2ccncc23)s1 (stereo not drawn); 75
CC(=O)Nc1nc(F)c(CN2C[C@@]3(Cc4cc(N5C[C@H](C)O[C@@H](C)C5)ncc4O3)C[C@@H]2C)s1; 75
CC(=O)Nc1ncc(CN2C[C@@]3(Cc4cc(N5C[C@@H](C)O[C@H](C)C5)ncc4O3)C[C@@H]2C)s1; 54

Lookup: Look at this compound and give its reported RLM % Qh (%). CC(=O)Nc1ncc(CN2CCCC3(C2)OCc2cnccc23)s1 (stereo not drawn)
Found: 84

* * *

Protocol summary: Rat Liver Microsome Stability Assay
Details: rat liver microsomes 0.5 mg/mL, compound 1 μM; Qh 55 mL/minute/kg
I'd appreciate it if you marked entries yes (1) when RLM % Qh (%) is lower than 80% and no (0) when it is not.

Solved entries:
CC(=O)Nc1nc(F)c(CN2C[C@@]3(Cc4cc(Cl)ncc4O3)C[C@@H]2C)s1 [Example 10]; yes (1)
CC(=O)Nc1ncc(CN2CCC3(Cc4cnc(Cl)cc4O3)C2)s1 (centres unmarked) [Example 8]; yes (1)
COc1nccc2c1COC21C[C@H](C)N(Cc2cnc(NC(C)=O)s2)C1 (some centres unmarked) [Example 78]; no (0)

Now for a further compound.
Lookup: Here's an entry: CC(=O)Nc1nc(F)c(CN2C[C@@]3(Cc4ncccc4O3)C[C@@H]2C)s1 (single isomer, unassigned) [Example 19-a] . Is its RLM % Qh (%) below 80%?
Found: yes (1)
